# system_under_test: STAT3 (Homo sapiens)
# Construct: This cell line is a clone created by using CRISPR-Cas9 to fuse HiBiT to the 3′ end of STAT3 in HeLa cells; host or cells: STAT3-HiBiT KI HeLa cell line (CRISPR-Cas9 knock-in clone)
# Sequence (P40763 whole entry): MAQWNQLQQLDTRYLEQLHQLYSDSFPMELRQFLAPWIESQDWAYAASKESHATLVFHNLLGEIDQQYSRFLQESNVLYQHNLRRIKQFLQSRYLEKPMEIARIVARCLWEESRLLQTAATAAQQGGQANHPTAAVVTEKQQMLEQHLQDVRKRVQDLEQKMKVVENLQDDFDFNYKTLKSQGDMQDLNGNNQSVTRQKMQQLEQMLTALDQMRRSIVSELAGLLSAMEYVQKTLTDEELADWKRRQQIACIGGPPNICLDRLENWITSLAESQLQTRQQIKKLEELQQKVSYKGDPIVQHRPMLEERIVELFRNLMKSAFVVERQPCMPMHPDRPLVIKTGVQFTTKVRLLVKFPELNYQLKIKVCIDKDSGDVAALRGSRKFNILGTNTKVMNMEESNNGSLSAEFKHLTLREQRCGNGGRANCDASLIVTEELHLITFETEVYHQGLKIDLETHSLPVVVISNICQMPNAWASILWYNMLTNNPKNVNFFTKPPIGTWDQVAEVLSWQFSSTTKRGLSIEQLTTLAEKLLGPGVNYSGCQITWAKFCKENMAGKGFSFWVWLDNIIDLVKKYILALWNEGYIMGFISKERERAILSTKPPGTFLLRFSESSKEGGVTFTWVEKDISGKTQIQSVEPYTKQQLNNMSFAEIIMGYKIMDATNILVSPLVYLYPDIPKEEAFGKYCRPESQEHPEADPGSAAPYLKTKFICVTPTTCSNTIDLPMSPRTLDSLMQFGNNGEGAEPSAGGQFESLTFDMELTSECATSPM
# protocol: HiBiT assay, STAT3 degradation in STAT3-HiBiT KI HeLa cells
# Format: cell-based
# assay_setup: 24 h, read-out: STAT3 Degradation (HeLa 24 h HiBit) DC50
metric_name: DC50

Known results for compounds:
[
  {
    "compound": "Cc1ncsc1-c1ccc([C@H](C)NC(=O)[C@@H]2C[C@@H](O)CN2C(=O)[C@@H](n2cc(CCCCC(=O)N3CC[C@H]4CC[C@@H](C(=O)N[C@@H](CCC(N)=O)C(=O)NCc5cccc(Cl)c5)N4C(=O)[C@@H](NC(=O)c4cc5cc(C(=O)P(=O)(O)O)ccc5[nH]4)C3)nn2)C(C)(C)C)cc1 [Compound 10]",
    "measurement": "0.01 to 0.1 µM"
  },
  {
    "compound": "Cc1ncsc1-c1ccc([C@H](C)NC(=O)[C@@H]2C[C@@H](O)CN2C(=O)[C@@H](n2cc(CCCc3cccc(OC[C@H](CCC(N)=O)NC(=O)[C@@H]4CC[C@@H]5CCN(C(=O)C(C)C)C[C@H](NC(=O)c6cc7cc(C(=O)P(=O)(O)O)ccc7[nH]6)C(=O)N54)c3Cl)nn2)C(C)(C)C)cc1 [Compound 2]",
    "measurement": "< 0.01 µM"
  }
]

// lookup DC50 for CCS(=O)(=O)c1ccc(CNC(=O)[C@H](CCC(N)=O)NC(=O)[C@@H]2CC[C@@H]3CCN(C(=O)CCCCCc4cn([C@H](C(=O)N5C[C@H](O)C[C@H]5C(=O)N[C@@H](COCCOCCOC)c5ccc(-c6scnc6C)cc5)C(C)(C)C)nn4)C[C@H](NC(=O)c4cc5cc(C(=O)P(=O)(O)O)ccc5[nH]4)C(=O)N32)cc1 [Compound 40]
0.01 to 0.1 µM
